Molecular target: T1, NPNA4 peptide (Plasmodium falciparum (isolate 3D7)., not fully specified)
T1 construct: source: synthetic peptide (InnoPep Inc)
T1 chain: NPNANPNANPNANPNA
Assay: BLI
Conditions: both partners purified
Ends that are not written are not given here.
ENDPOINT_NAME: pKd
Please express pKd as -log10 of the molar concentration.

BINDER	pKd
356 Fab (Fab, V domains shown, also called mAb 356; source: ExpiCHO cells, purified (mAb Select PrismA or Capture Select, SEC)) VH: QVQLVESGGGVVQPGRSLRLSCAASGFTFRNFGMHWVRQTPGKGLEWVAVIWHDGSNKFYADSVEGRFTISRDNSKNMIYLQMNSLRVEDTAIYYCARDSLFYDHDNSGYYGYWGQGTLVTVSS VL: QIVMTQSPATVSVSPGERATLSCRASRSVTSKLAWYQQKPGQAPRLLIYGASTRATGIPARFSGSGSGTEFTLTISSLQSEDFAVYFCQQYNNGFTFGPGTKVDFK	6.91
364 Fab (Fab, V domains shown, also called mAb 364; source: ExpiCHO cells, purified (mAb Select PrismA or Capture Select, SEC)) VH: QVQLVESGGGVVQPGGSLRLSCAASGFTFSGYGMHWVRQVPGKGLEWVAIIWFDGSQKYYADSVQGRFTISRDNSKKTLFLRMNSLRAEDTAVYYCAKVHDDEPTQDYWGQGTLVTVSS VL: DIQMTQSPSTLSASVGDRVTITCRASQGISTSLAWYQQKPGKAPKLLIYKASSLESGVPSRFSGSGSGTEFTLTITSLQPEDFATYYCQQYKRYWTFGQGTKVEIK	6.59

The binder listed as 311 Fab (Fab, V domains shown, also called mAb 311; source: ExpiCHO cells, purified (mAb Select PrismA or Capture Select, SEC)) VH: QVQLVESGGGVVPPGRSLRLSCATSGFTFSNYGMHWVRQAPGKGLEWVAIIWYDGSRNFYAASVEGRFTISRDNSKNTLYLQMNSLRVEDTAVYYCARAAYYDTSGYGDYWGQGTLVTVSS VL: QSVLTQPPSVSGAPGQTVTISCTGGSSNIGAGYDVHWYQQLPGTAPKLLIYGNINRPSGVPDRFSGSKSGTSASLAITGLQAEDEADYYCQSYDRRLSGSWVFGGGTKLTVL has a reported pKd of 6.67

The binder listed as 227 Fab (Fab, V domains shown, also called mAb 227; source: ExpiCHO cells, purified (mAb Select PrismA or Capture Select, SEC)) VH: QVQLVQSGGGVVQPGRSLRLSCVTSGFTFPAFGMHWVRQAPGKGLEWVAVIWYDGSKKYYADSVRGRFTISRDNSRNTLYLQMHSLRAEDTAVYYCARVKNYESSGYSQCLDYWGQGVLVTVAS VL: QSVLTQPPSVSGAPGQRVTISCTGSSSNIGAGYDVHWYQQLPGTAPKLLIYGNGNRPSGVPDRFSGSKSGTSVSLAITGLQAEDEADYYCQSYDSSLSAFVFGTGTKVTVL has a reported pKd of 7.43

The binder listed as 311R Fab (Fab, V domains shown, also called germline-reverted 311; source: ExpiCHO cells, purified (mAb Select PrismA or Capture Select, SEC)) VH: QVQLVESGGGVVPPGRSLRLSCATSGFTFSSYGMHWVRQAPGKGLEWVAIIWYDGSNKFYAASVKGRFTISRDNSKNTLYLQMNSLRVEDTAVYYCARAAYYDTSGYGDYWGQGTLVTVSS VL: QSVLTQPPSVSGAPGQTVTISCTGGSSNIGAGYDVHWYQQLPGTAPKLLIYGNINRPSGVPDRFSGSKSGTSASLAITGLQAEDEADYYCQSYDSSLSGSWVFGGGTKLTVL has a reported pKd of 7.17
